Where do these numbers come from? They come from patent US20200040103A1.

Some binders, each annotated with its measured IC50.
# experimental_target: recombinant human KLK5 (human) (UniProt Q9Y337)
# Sequence (Q9Y337 67-293): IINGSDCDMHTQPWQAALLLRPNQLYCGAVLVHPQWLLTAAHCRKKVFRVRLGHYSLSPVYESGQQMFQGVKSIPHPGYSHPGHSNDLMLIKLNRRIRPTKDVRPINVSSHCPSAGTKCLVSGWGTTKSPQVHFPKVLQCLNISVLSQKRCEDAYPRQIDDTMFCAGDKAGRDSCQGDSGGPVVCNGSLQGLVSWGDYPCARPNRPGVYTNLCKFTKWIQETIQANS
# assay_comment: pro-KLK7 LC/MS assay, 5 nM KLK5, 15 nM pro-KLK7, nM
experimental_readout: IC50 (nM)

INSERT INTO measurements (binder, units_of_measure, numeric_readout) VALUES
  ('8F5 (antibody, V domains shown) VH: QSVKESEGGLFKPTDTLTLTCTVSGFSLSSYPISWVRQAPGNGLEWIGYITSEYGVAYYATWAESRSTITRNTNLNTVTLKMTSLTAADTATYFCVRENPTYGYAYDAWGPGTLVTVSS VL: AYDLTQTPASVEAAVGGTVTINCQASESIGNELSWYQQKSGQPPKLLIYQASTLASGVPSRFKGSGSGTDFTLTISDLECADAATYYCAQGFSSSGVENVFGGGTEVVVK', 'nM', 1.31),
  ('9B6 (antibody, V domains shown) VH: QSVKESEGGLFKPTDNLTLTCTVSGFSLSNYGVTWVRQAPGNGLEYIGFIGSGGSAYYASWAKSRSTITRNTNLNTVTLKMTSLTAADTATYFCARDDVGGGKSLDIWGPGTLVTVSS VL: NIVMTQTPASVEVAVGGTVVIKCQASQNIGDYLSWYQQKPGQRPKLLIYSASTLASGVPSRFKGSGSGTQFTLTISDLECADAATYYCHQDYTSNDVENTFGGGTEVVVK', 'nM', 1.42),
  ('9H5 (antibody, V domains shown) VH: QSVKESEGGLFKPTDNLTLTCTVSGFSLSSYGVSWVRQAPGNGLEYIGFIGSGGFAYYASWAKSRSTITRNTNLNTVTLKMTSLTAADTATYFCARDDVGGGKSLDIWGPGTVVTVSV VL: NIVMTQTPASVEAAVGGTVTINCQASQSISSYLSWYQQKSGQRPKLLIFSASTLASGVPSRFTGSGSGTQFTLTISDLQCADAATYYCHQDYTSSNVDNTFGGGTEVVVK', 'nM', 1.68);
